Reported pEC50 values are given for each entry in this list.
- tested_target: T1, ErbB4 (Rattus norvegicus, UniProt Q62956)
- T1 construct: forming the ErbB2/ErbB4 complex in cardiomyocytes and the ErbB2/ErbB3 complex in Schwann cells; endogenous in cells; host or cells: primary neonatal rat cardiomyocytes (Sprague Dawley pups, 0 to 4 days old)
- T1 sequence (Q62956 26-1308): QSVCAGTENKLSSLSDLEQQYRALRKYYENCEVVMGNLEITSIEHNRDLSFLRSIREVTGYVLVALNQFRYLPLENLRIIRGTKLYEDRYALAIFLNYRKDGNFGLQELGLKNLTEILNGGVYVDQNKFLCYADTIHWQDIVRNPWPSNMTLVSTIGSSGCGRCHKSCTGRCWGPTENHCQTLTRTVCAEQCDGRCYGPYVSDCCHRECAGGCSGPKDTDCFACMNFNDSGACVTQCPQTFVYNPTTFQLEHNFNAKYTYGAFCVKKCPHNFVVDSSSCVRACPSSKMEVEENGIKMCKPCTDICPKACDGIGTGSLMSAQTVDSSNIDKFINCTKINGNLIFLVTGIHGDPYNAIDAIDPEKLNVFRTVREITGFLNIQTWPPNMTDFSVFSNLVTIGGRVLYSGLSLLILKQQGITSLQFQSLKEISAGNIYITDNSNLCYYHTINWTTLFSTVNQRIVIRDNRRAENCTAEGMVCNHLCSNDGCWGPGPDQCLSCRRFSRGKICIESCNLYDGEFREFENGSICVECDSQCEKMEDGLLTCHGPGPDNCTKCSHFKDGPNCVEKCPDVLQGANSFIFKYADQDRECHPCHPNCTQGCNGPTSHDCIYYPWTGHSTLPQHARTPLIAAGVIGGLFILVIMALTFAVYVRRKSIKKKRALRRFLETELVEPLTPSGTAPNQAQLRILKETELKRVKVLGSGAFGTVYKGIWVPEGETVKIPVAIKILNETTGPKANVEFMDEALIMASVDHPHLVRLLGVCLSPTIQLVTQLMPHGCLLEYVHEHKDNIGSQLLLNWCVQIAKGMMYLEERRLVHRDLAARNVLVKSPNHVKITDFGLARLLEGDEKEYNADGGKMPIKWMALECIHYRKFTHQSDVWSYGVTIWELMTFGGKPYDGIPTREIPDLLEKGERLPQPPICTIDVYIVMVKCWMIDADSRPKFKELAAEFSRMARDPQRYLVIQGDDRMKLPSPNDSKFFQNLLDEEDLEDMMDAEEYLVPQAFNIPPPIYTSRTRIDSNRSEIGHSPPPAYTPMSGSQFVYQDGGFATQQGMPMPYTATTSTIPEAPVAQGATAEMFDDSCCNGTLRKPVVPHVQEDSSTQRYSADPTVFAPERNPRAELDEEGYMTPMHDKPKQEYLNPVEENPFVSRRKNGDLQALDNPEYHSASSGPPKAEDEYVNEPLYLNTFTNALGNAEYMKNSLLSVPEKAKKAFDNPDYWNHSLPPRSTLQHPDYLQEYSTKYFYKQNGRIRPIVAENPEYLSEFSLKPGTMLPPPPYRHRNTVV
- T1 sequence (P06494 23-1257 partner): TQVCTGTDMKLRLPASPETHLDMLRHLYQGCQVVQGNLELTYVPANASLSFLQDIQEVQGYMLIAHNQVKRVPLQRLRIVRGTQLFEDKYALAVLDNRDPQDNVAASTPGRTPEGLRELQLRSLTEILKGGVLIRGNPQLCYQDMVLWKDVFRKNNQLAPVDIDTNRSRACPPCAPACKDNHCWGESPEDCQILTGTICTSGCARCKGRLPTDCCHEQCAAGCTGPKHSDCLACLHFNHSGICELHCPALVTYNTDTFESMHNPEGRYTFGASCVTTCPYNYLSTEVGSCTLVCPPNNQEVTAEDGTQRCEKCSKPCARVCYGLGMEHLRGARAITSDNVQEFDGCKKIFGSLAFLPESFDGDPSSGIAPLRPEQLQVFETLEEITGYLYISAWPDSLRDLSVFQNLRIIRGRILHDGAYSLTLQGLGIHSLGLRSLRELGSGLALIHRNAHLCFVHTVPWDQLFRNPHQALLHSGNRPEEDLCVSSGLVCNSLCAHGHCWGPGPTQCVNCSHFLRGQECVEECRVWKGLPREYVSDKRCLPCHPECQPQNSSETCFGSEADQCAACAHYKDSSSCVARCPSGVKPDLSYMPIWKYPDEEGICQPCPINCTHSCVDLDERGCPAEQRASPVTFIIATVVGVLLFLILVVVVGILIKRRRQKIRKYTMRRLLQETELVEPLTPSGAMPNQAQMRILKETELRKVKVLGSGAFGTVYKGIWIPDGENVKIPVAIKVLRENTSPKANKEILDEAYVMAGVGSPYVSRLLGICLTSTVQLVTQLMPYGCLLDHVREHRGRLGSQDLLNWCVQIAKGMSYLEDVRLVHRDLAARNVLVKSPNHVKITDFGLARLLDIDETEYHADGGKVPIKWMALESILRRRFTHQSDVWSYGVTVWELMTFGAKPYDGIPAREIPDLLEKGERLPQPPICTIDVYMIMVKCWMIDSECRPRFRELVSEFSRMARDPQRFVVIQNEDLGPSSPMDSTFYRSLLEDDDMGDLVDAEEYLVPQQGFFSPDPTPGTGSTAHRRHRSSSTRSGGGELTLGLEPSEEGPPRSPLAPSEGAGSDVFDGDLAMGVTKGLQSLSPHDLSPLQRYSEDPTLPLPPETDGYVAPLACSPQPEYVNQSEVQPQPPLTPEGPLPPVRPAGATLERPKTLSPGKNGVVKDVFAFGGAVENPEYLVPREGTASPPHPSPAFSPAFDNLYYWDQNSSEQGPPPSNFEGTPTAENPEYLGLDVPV
- assay_method_text: In vitro phosphorylation of Akt in neonatal rat cardiomyocytes
- Type: cell-based
- setup_conditions: Akt (Serine 473) phosphorylation, neonatal rat cardiomyocytes, 15 minutes treatment; read-out: Cardiomyocyte (CM) (ErbB4) Avg EC50
# pEC50: negative log10 of molar concentration; output just the value

huNRG1(S177-F229)(NRGE1C) (E47S_D48T_F49R_M50V) 6xHis: 6xHis-tagged NRG1 variant SEQ ID NO:123 (protein, 6xHis tag; huNRG1(S177-F229)(NRGE1C) (E47S_D48T_F49R_M50V) 6xHis) SHLVKCGEKHKSFCVNGGECFMIEGPSNPSRYLCKCPNEFTGDRCQSTRVASFGGGGEGGGGAGGGGHHHHHH: 9.24
huNRG1(S177-F229)(NRGE1D) 6xHis: 6xHis-tagged NRG1 variant SEQ ID NO:126 (protein, 6xHis tag; huNRG1(S177-F229)(NRGE1D) 6xHis) SHLVKCGESHKSFCVNGGECYMVEGSSIPSRYLCKCPNEFTGDRCQEDFMASFGGGGEGGGGAGGGGHHHHHH: 9.41
huNRG1(S177-F229)(NRGE1D) (E47S_D48S_F49E_M50L) 6xHis: 6xHis-tagged NRG1 variant SEQ ID NO:128 (protein, 6xHis tag; huNRG1(S177-F229)(NRGE1D) (E47S_D48S_F49E_M50L) 6xHis) SHLVKCGESHKSFCVNGGECYMVEGSSIPSRYLCKCPNEFTGDRCQSSELASFGGGGEGGGGAGGGGHHHHHH: 9.25
huNRG1(S177-F229)(NRGE1C) (E47A_D48P_F49H_M50I) 6xHis: 6xHis-tagged NRG1 variant SEQ ID NO:119 (protein, 6xHis tag; huNRG1(S177-F229)(NRGE1C) (E47A_D48P_F49H_M50I) 6xHis) SHLVKCGEKHKSFCVNGGECFMIEGPSNPSRYLCKCPNEFTGDRCQAPHIASFGGGGEGGGGAGGGGHHHHHH: 8.96

Entry huNRG1(S177-S228)(NRGE1C)::3x(G4Q)::huFcSEFL2 (Pb): Fc fusion of NRG1 variant SEQ ID NO:116 (protein, huNRG1(S177-S228)(NRGE1C)::3x(G4Q)::huFcSEFL2 (Pb)) STYRCVSVLTVLHQDWLNGKEYKCKVSNKALPAPIEKTISKAKGQPREPQVYTLPPSREEMTKNQVSLTCLVKGFYPSDIAVEWESNGQPENNYKTTPPVLDSDGSFFLYSKLTVDKSRWQQGNVFSCSVMHEALHNHYTQKSLSLSPGK ; pEC50 = 7.83

pEC50 measured on huNRG1(S177-F229)(NRGE1D) (E47K_D48L_F49D_M50I) 6xHis: 6xHis-tagged NRG1 variant SEQ ID NO:127 (protein, 6xHis tag; huNRG1(S177-F229)(NRGE1D) (E47K_D48L_F49D_M50I) 6xHis) SHLVKCGESHKSFCVNGGECYMVEGSSIPSRYLCKCPNEFTGDRCQKLDIASFGGGGEGGGGAGGGGHHHHHH = 9.51

Form field pEC50, entry huNRG1(S177-F229) 6xHis: 6xHis-tagged NRG1 fragment S177-F229 without variant mutations (protein, 6xHis tag; huNRG1(S177-F229) 6xHis, 6xHis-tagged NRG1 fragment S177-F229 without variant mutations) SHLVKCAEKEKTFCVNGGECFMVKDLSNPSRYLCKCPNEFTGDRCQNYVMASFGGGGEGGGGAGGGGHHHHHH : 9.23

pEC50 reported for this molecule huNRG1(S177-F229)(NRGE1C) 6xHis: 6xHis-tagged NRG1 variant SEQ ID NO:117 (protein, 6xHis tag; huNRG1(S177-F229)(NRGE1C) 6xHis) SHLVKCGEKHKSFCVNGGECFMIEGPSNPSRYLCKCPNEFTGDRCQEDFMASFGGGGEGGGGAGGGGHHHHHH : 8.84
